study target: CDK4/cyclin D3 (Homo sapiens, UniProt P11802)
Construct: purchased Carna Biosciences, Inc. QS S Assist CDK4/Cyclin D3_FP Kit
Sequence (P11802 whole entry): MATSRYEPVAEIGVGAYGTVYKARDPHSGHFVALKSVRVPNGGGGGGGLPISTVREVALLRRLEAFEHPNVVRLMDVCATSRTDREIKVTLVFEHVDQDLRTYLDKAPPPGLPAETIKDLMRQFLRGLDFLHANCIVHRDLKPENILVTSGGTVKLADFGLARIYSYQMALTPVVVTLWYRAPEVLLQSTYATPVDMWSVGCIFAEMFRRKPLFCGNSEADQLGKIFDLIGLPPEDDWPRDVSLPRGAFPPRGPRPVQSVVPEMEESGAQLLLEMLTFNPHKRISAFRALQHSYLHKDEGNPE
Sequence (P30281 whole entry partner): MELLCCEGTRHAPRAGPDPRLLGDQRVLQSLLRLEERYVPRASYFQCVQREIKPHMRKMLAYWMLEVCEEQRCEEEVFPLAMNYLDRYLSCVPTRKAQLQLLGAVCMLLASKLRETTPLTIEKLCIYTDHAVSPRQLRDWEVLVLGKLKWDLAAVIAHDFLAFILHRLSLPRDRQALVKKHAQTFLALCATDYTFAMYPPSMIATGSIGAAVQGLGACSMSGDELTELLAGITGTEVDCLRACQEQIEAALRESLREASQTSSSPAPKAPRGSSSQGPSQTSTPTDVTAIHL
experiment summary: Human CDK4/cyclin D3 inhibitory activity (QS S Assist CDK4/Cyclin D3_FP Kit, IMAP fluorescence polarization)
Assay type: biochemical
assay setup: Human CDK4/cyclin D3 inhibitory activity; read-out: CDK4 Activity symbol
quantity: IC50

C[C@@H](O)c1cc2cnc(Nc3ccc(N4CCNCC4=O)cn3)nc2c(N[C@@H]2CCOC2)n1 [Compound 348]	< 10 nM
CO[C@H](C)c1cc2cnc(Nc3ccc(CN4CCOCC4)cn3)nc2c(NC(C)C)n1 [Compound 172]	10 to 100 nM
CC(C)Nc1nc([C@@H](C)O)cc2cnc(Nc3ccc(OCC4(F)CNC4)cn3)nc12 [Compound 578]	< 10 nM

Problem: Record lookup: for CDK4/cyclin D3 (Homo sapiens, UniProt P11802), what IC50 belongs to CO[C@H](C)c1cc2cnc(Nc3ccc(CN4CC[C@@H](O)C4)cn3)nc2c(NC(C)C)n1 [Compound 270] ?
Solution: < 10 nM

====

study target: CDK4/cyclin D3 (Homo sapiens, UniProt P11802)
Construct: purchased Carna Biosciences, Inc. QS S Assist CDK4/Cyclin D3_FP Kit
experiment summary: Human CDK4/cyclin D3 inhibitory activity (QS S Assist CDK4/Cyclin D3_FP Kit, IMAP fluorescence polarization)
Type: biochemical
assay setup: Human CDK4/cyclin D3 inhibitory activity; read-out: CDK4 Activity symbol
pIC50: −log10 of the molar value.
quantity: pIC50

Some solved cases for reference:
CC(C)Nc1nc(C(F)F)cc2cnc(Nc3ccc(CN4CCC(C(N)=O)CC4)cn3)nc12 [Compound 125]	> 8.00
CC(C)Nc1nc(C(F)F)cc2cnc(Nc3ccc(C4CCS(=O)(=O)CC4)cn3)nc12 [Compound 159]	> 8.00
CO[C@H](C)c1cc2cnc(Nc3ccc(CCO)cn3)nc2c(NC(C)C)n1 [Compound 223]	> 8.00

Okay, now this compound:
Problem: I am curious: what pIC50 value has been reported for CO[C@H](C)c1cc2cnc(Nc3ccc(CN4CCNC(C)(C)C4)cn3)nc2c(NC(C)C)n1 [Compound 534] ?
Solution: > 8.00

====

study target: CDK4/cyclin D3 (Homo sapiens)
Construct: purchased Carna Biosciences, Inc. QS S Assist CDK4/Cyclin D3_FP Kit
experiment summary: Human CDK4/cyclin D3 inhibitory activity (QS S Assist CDK4/Cyclin D3_FP Kit, IMAP fluorescence polarization)
Assay type: biochemical
assay setup: Human CDK4/cyclin D3 inhibitory activity; read-out: CDK4 Activity symbol
Procedure: Human CDK4/Cyclin D3 Inhibitory Activity Each compound was analyzed for CDK4/cyclin D3 inhibitory activity with an assay kit (QS S Assist CDK4/Cyclin D3_FP Kit, available from Carna Biosciences, Inc.). […] Specifically, the kinase activity is determined through quantification of a variation in fluorescent polarization caused by binding of a kinase-phosphorylated fluorescent substance to an IMAP-binding reagent. […]
pIC50: −log10 of the molar value.
quantity: pIC50

Some solved cases for reference:
CO[C@H](C)c1cc2cnc(Nc3ccc(CN4CCNC5(CC5)C4)cn3)nc2c(NC(C)C)n1 [Compound 535]	> 8.00
CC(C)Nc1nc([C@@H](C)O)cc2cnc(Nc3ccc(CCCN4CCOCC4=O)cn3)nc12 [Compound 229]	> 8.00
CC(C)Nc1nc([C@@H](C)O)cc2cnc(Nc3ccc(N4CCNC(=O)C4)nn3)nc12 [Compound 540]	> 8.00

Problem: I am curious: what pIC50 value has been reported for O=C(O)[C@H]1CC[C@H](Nc2nc(C(F)F)cc3cnc(Nc4ccc(N5CCNCC5)nn4)nc23)CC1 [Compound 384] ?
Solution: 7.00 to 8.00

====

Listed molecules paired with reported IC50
study target: CDK4/cyclin D3 (Homo sapiens, UniProt P11802)
Construct: purchased Carna Biosciences, Inc. QS S Assist CDK4/Cyclin D3_FP Kit
experiment summary: Human CDK4/cyclin D3 inhibitory activity (QS S Assist CDK4/Cyclin D3_FP Kit, IMAP fluorescence polarization)
Type: biochemical
assay setup: 50% inhibitory concentration against CDK4/cyclin D3, given as class symbol

Some solved cases for reference:
COC1CCC(Nc2nc([C@@H](C)O)cc3cnc(Nc4ccc(N5CCNCC5=O)cn4)nc23)CC1 (stereo partly shown) [Compound 650]	< 10 nM
CC(C)Nc1nc([C@@H](C)O)cc2cnc(Nc3ccc(N4CCC(C(=O)O)CC4)nn3)nc12 [Compound 792]	10 to 100 nM
O=C(O)C1CCN(Cc2ccc(Nc3ncc4cc(C(F)F)nc(NC5CCC5)c4n3)nc2)CC1 [Compound 1099]	< 10 nM

Problem: I am curious: what IC50 value has been reported for CC(=O)c1cc2cnc(Nc3ccc(CN4CCN(CCO)CC4)cn3)nc2c(NCC(C)C)n1 [Compound 973] ?
Solution: 10 to 100 nM

====

Listed compounds paired with reported IC50
study target: CDK4/cyclin D3 (Homo sapiens, UniProt P11802)
Construct: purchased Carna Biosciences, Inc. QS S Assist CDK4/Cyclin D3_FP Kit
experiment summary: Human CDK4/cyclin D3 inhibitory activity (QS S Assist CDK4/Cyclin D3_FP Kit, IMAP fluorescence polarization)
Type: biochemical
assay setup: 50% inhibitory concentration against CDK4/cyclin D3, given as class symbol

Some solved cases for reference:
CC(C)Nc1nc([C@@H](C)O)cc2cnc(Nc3ccc(O[C@@H]4CCN(CCO)C4)cn3)nc12	< 0.01 µM
CC(C)Nc1nc([C@@H](C)O)cc2cnc(Nc3ccc(CN4CCN(C[C@H](C)O)CC4)cn3)nc12	< 0.01 µM

Problem: I am curious: what IC50 value has been reported for C[C@@H](O)c1cc2cnc(Nc3ccc(N4CCNCC4=O)cn3)nc2c(NC23CC(C2)C3)n1 ?
Solution: < 0.01 µM

Problem: I am curious: what IC50 value has been reported for CC(C)Nc1nc([C@@H](C)O)cc2cnc(Nc3ccc(N4CCN(C(C)C)CCC4=O)cn3)nc12 ?
Solution: < 0.01 µM

Problem: I am curious: what IC50 value has been reported for CO[C@H](C)c1cc2cnc(Nc3ccc(CN4CCN(C(=O)C5CCCO5)CC4)cn3)nc2c(NC(C)C)n1 (stereo partly drawn) ?
Solution: 0.01 to 0.1 µM

Problem: I am curious: what IC50 value has been reported for C[C@@H](O)c1cc2cnc(Nc3ccc4c(n3)CCNC4)nc2c(N[C@H]2CCCOC2)n1 ?
Solution: < 0.01 µM

Problem: I am curious: what IC50 value has been reported for CCCNc1nc([C@@H](C)O)cc2cnc(Nc3ccc(CN4CCN(C)CC4)cn3)nc12 ?
Solution: < 0.01 µM

Problem: I am curious: what IC50 value has been reported for CC(O)c1cc2cnc(Nc3ccc(OCCN(C)C)cn3)nc2c(NC2CCC(C)(C)OC2)n1 (single isomer, unassigned) [Compound 690] ?
Solution: < 0.01 µM

Problem: I am curious: what IC50 value has been reported for CCCCNc1nc([C@@H](C)OC)cc2cnc(Nc3ccc(CN4CCNCC4)cn3)nc12 ?
Solution: < 0.01 µM

Problem: I am curious: what IC50 value has been reported for CCCNc1nc(C2(C)COC2)cc2cnc(Nc3ccc(N4CCNCC4)nn3)nc12 ?
Solution: < 0.01 µM

Problem: I am curious: what IC50 value has been reported for CC(C)Nc1nc([C@@H](C)O)cc2cnc(Nc3ccc(CN4CCC(C(=O)O)CC4)cn3)nc12 ?
Solution: 0.01 to 0.1 µM

====

study target: CDK4/cyclin D3 (Homo sapiens, UniProt P11802)
Construct: purchased Carna Biosciences, Inc. QS S Assist CDK4/Cyclin D3_FP Kit
experiment summary: Human CDK4/cyclin D3 inhibitory activity (QS S Assist CDK4/Cyclin D3_FP Kit, IMAP fluorescence polarization)
Type: biochemical
assay setup: Human CDK4/cyclin D3 inhibitory activity; read-out: CDK4 Activity symbol
quantity: IC50

Some solved cases for reference:
CC(C)Nc1nc(C(C)O)cc2cnc(Nc3ccc(CN4CCNC5(CC5)C4)cn3)nc12 (stereo not shown) [Compound 516]	10 to 100 nM
CO[C@H](C)c1cc2cnc(Nc3ccc(N4CCN[C@@H](C)C4=O)cn3)nc2c(NC(C)C)n1 [Compound 463]	< 10 nM
CO[C@H](C)c1cc2cnc(Nc3ccc(N4CC5(CC(N)C5)C4)cn3)nc2c(NC(C)C)n1 [Compound 484]	< 10 nM

Okay, now this compound:
Problem: I am curious: what IC50 value has been reported for FC(F)c1cc2cnc(Nc3ccc(N4CCNCC4)nn3)nc2c(NC2CCOCC2)n1 [Compound 365] ?
Solution: < 10 nM

====

study target: CDK4/cyclin D3 (Homo sapiens, UniProt P11802)
Construct: purchased Carna Biosciences, Inc. QS S Assist CDK4/Cyclin D3_FP Kit
experiment summary: Human CDK4/cyclin D3 inhibitory activity (QS S Assist CDK4/Cyclin D3_FP Kit, IMAP fluorescence polarization)
Format: biochemical
assay setup: Human CDK4/cyclin D3 inhibitory activity; read-out: CDK4 Activity symbol
Method: Human CDK4/Cyclin D3 Inhibitory Activity Each compound was analyzed for CDK4/cyclin D3 inhibitory activity with an assay kit (QS S Assist CDK4/Cyclin D3_FP Kit, available from Carna Biosciences, Inc.). […] Specifically, the kinase activity is determined through quantification of a variation in fluorescent polarization caused by binding of a kinase-phosphorylated fluorescent substance to an IMAP-binding reagent. […]
quantity: IC50

Some solved cases for reference:
CC(C)Nc1nc([C@@H](C)O)cc2cnc(Nc3ccc(N4CCN(CC(C)(C)C)CC4=O)cn3)nc12	< 10 nM
CC1(C)NCCN(c2ccc(Nc3ncc4cc(C(F)F)nc(NC5CCOCC5)c4n3)nc2)C1=O	10 to 100 nM
COC(C)c1cc2cnc(Nc3ccc(CN4CCNCC4)cn3)nc2c(N(C)C(C)C)n1 (stereo not shown)	10 to 100 nM

Okay, now this compound:
Problem: I am curious: what IC50 value has been reported for CO[C@H](C)c1cc2cnc(Nc3ccc(CN4CCNCC4)nn3)nc2c(NC(C)C)n1 ?
Solution: < 10 nM

Origin of values: patent US10124004B2
